Value source: patent US8604029B2

Tested on: Aspergillus niger
Consider the following compounds and their measured MIC readings.

These solved cases illustrate the format of a correct answer.
{"test_smiles": "C=C1CCN(c2ccc(NC(=O)C(=O)c3c(-c4ccccc4)cc4ccccn34)cc2)CC1", "MIC": "< 1 µg/mL"}
{"test_smiles": "O=C(Nc1ccc(N2CCN(c3ccccn3)CC2)cc1)C(=O)c1c(-c2ccccc2)cc2ccccn12", "MIC": "< 1 µg/mL"}
{"test_smiles": "O=C(Nc1ccc(N2CCN(CCc3ccccn3)CC2)cc1)C(=O)c1c(-c2ccccc2)cc2ccccn12", "MIC": "< 1 µg/mL"}
{"test_smiles": "O=C(Nc1ccc(N2CCN(Cc3ccco3)CC2)cc1)C(=O)c1c(-c2ccccc2)cc2ccccn12", "MIC": "< 1 µg/mL"}
{"test_smiles": "O=C(Nc1ccc(N2CCN(c3ccc(CN4CCOCC4)cn3)CC2)cc1)C(=O)c1c(-c2ccccc2)cc2ccccn12", "MIC": "< 1 µg/mL"}

Asked: Endpoint output: MIC of CCn1ccnc1Cc1ccc(NC(=O)C(=O)c2c(-c3ccccc3C)cc3ccccn23)cc1 . Value?
Given back: > 10 µg/mL

Asked: // next record Cc1cc(N2CCN(c3ccc(NC(=O)C(=O)c4c(-c5ccccc5)cc5ccccn45)cc3)CC2)nc(C)n1
Given back: 1 to 10 µg/mL

Asked: // next record O=C(Nc1ccc(N2CCN(Cc3cccs3)CC2)cc1)C(=O)c1c(-c2ccccc2)cc2ccccn12
Given back: < 1 µg/mL

Asked: // next record O=C(Nc1ccc(N2CCN(Cc3ccco3)CC2)nc1)C(=O)c1c(-c2ccccc2)cc2ccccn12
Given back: < 1 µg/mL

Asked: // next record Cc1cc(C)nc(N(C)CCCc2ccc(NC(=O)C(=O)c3c(-c4ccccc4)cc4ccccn34)cc2)c1
Given back: < 1 µg/mL

----------
Tested on: Aspergillus fumigatus
Assay: MIC measurement, YAG medium
Assay type: cell-based
Conditions: Aspergillus fumigatus; YAG medium; MIC banded into grades; strain AF293; read-out: MIC A. fumigatus
property_label: MIC

These solved cases illustrate the format of a correct answer.
{"test_smiles": "Cc1ccc(N2CCN(c3ccc(NC(=O)C(=O)c4c(-c5ccccc5)cc5ccccn45)cc3)CC2)nc1", "value_reported": "< 1 µg/mL"}
{"test_smiles": "CC(C)c1nccn1CCOC(=O)C(C)(C)c1ccc(NC(=O)C(=O)c2c(-c3ccccc3)cc3ccccn23)cc1", "value_reported": "> 10 µg/mL"}
{"test_smiles": "O=C(Nc1ccc(N2CCS(=O)(=O)CC2)cc1)C(=O)c1c(-c2ccccc2)cc2ccccn12", "value_reported": "> 10 µg/mL"}
{"test_smiles": "Cc1cc(C)nc(N(C)CCCN(C)c2ccc(NC(=O)C(=O)c3c(-c4ccccc4)cc4ccccn34)cc2)c1", "value_reported": "< 1 µg/mL"}
{"test_smiles": "Cc1cc(C)nc(N(C)CCNc2ccc(NC(=O)C(=O)c3c(-c4ccccc4)cc4ccccn34)cc2)c1", "value_reported": "< 1 µg/mL"}

Asked: Endpoint output: MIC of Cc1cc(C)nc(N2CCN(c3ccc(NC(=O)C(=O)c4c(-c5ccccc5)cc5ccc(F)cn45)cc3)CC2)c1 . Value?
Given back: < 1 µg/mL

Asked: // next record Cc1cc(C)nc(N(C)CCN(C)c2ccc(NC(=O)C(=O)c3c(-c4ccccc4)cc4ccccn34)cc2)c1
Given back: < 1 µg/mL

Asked: // next record O=C(Nc1ccc(N2CCN(c3ccc(CN4CCOCC4)cc3)CC2)cc1)C(=O)c1c(-c2ccccc2)cc2ccccn12
Given back: < 1 µg/mL

Asked: // next record O=C(Nc1ccc(N2CCN(Cc3ccco3)CC2)cc1)C(=O)c1c(-c2ccccc2)cc2ccccn12
Given back: < 1 µg/mL

Asked: // next record CC(C)c1nccn1CCOC(=O)C(C)(C)c1cccc(NC(=O)C(=O)c2c(-c3ccccc3)cc3ccccn23)c1
Given back: > 10 µg/mL

Asked: // next record CCn1ccnc1Cc1ccc(NC(=O)C(=O)c2c(-c3ccccc3C)cc3ccccn23)cc1
Given back: > 10 µg/mL

Asked: // next record Cc1cc(C)nc(N(C)CCOc2ccc(NC(=O)C(=O)c3c(-c4ccccc4)cc4ccccn34)cc2)c1
Given back: < 1 µg/mL

Asked: // next record CCc1cccc(N2CCN(c3ccc(NC(=O)C(=O)c4c(-c5ccccc5)cc5ccccn45)cc3)CC2)n1
Given back: < 1 µg/mL

Asked: // next record CC(C)c1nc(C(C)(C)c2cccc(NC(=O)C(=O)c3c(-c4ccccc4)cc4ccccn34)c2)cn1C
Given back: > 10 µg/mL

Asked: // next record Cc1cc(C)nc(CNc2ccc(NC(=O)C(=O)c3c(-c4ccccc4)cc4ccccn34)cc2)c1
Given back: < 1 µg/mL

----------
Tested on: Aspergillus fumigatus
Assay: MIC measurement, YAG medium
Format: cell-based
Conditions: Aspergillus fumigatus; YAG medium; MIC banded into grades; strain AF293; read-out: MIC A. fumigatus
Consider the following compounds and their measured MIC readings.

These solved cases illustrate the format of a correct answer.
{"compound": "COCCN(C)c1ccc(N2CCN(c3ccc(NC(=O)C(=O)c4c(-c5ccccc5)cc5ccccn45)cc3)CC2)cn1 [Example 68]", "value_reported": "< 1 µg/mL"}
{"compound": "COc1ccc(NC(=O)C(=O)c2c(C)c(-c3ccccc3)c3ccccn23)cc1 [Example 6]", "value_reported": "> 10 µg/mL"}
{"compound": "O=C(Nc1ccccc1F)C(=O)c1c(-c2ccccc2)cc2ccc3ccccc3n12 [Example 4]", "value_reported": "> 10 µg/mL"}

Let us move to another entry and its MIC.
Asked: Endpoint output: MIC of O=C(Nc1ccc(N2CCN(c3cccc(CCO)n3)CC2)cc1)C(=O)c1c(-c2ccccc2)cc2ccccn12 [Example 88] . Value?
Given back: < 1 µg/mL

----------
// MIC collected for Aspergillus flavus

Asked: Query the reported MIC for Aspergillus flavus; item: O=C(Nc1ccc(N2CCN(c3ccc(CN4CCOCC4)cn3)CC2)cc1)C(=O)c1c(-c2ccccc2)cc2ccccn12
Given back: < 1 µg/mL

Asked: // next record O=C(Nc1ccc(N2CCN(CCc3ccccn3)CC2)cc1)C(=O)c1c(-c2ccccc2)cc2ccccn12
Given back: < 1 µg/mL

Asked: // next record Cc1nc(C(C)C)cn1C(C)(C)c1cccc(NC(=O)C(=O)c2c(-c3ccccc3)cc3ccccn23)c1
Given back: 1 to 10 µg/mL

Asked: // next record O=C(Nc1ccc(N2CCN(c3ccccn3)CC2)cc1)C(=O)c1c(-c2ccccc2)cc2ccc(F)cn12
Given back: < 1 µg/mL

Asked: // next record Cc1cc(C)nc(N(C)CCCc2ccc(NC(=O)C(=O)c3c(-c4ccccc4)cc4ccccn34)cc2)c1
Given back: < 1 µg/mL

Asked: // next record O=C(Nc1ccc(N2CCN(Cc3cccs3)CC2)cc1)C(=O)c1c(-c2ccccc2)cc2ccccn12
Given back: < 1 µg/mL

Asked: // next record CCOCCN(C1=NC(C)(C)CO1)c1ccc(NC(=O)C(=O)c2c(-c3ccccc3)cc3ccccn23)cc1
Given back: 1 to 10 µg/mL

----------
Test system: Aspergillus fumigatus
Assay: MIC measurement, YAG medium
Assay type: cell-based
Details: Aspergillus fumigatus; YAG medium; MIC banded into grades; strain AF293; read-out: MIC A. fumigatus
property_label: MIC

These solved cases illustrate the format of a correct answer.
{"molecule": "O=C(Nc1ccc(N2CCN(c3ccccn3)CC2)cc1)C(=O)c1c(-c2ccccc2)cc2ccccn12 [Example 41]", "value_reported": "< 1 µg/mL"}
{"molecule": "O=C(Nc1ccc(N2CCN(Cc3cccs3)CC2)cc1)C(=O)c1c(-c2ccccc2)cc2ccccn12 [Example 33]", "value_reported": "< 1 µg/mL"}
{"molecule": "Cc1cc(C)nc(N2CCN(c3ccc(NC(=O)C(=O)c4c(C5CCCCC5)cc5ccccn45)cc3)CC2)c1 [Example 60]", "value_reported": "< 1 µg/mL"}
{"molecule": "CCC(CC)N1CCN(c2ccc(NC(=O)C(=O)c3c(-c4ccccc4Cl)cc4ccccn34)cn2)CC1 [Example 10]", "value_reported": "< 1 µg/mL"}
{"molecule": "Cc1cc(C)nc(CCCCc2ccc(NC(=O)C(=O)c3c(-c4ccccc4)cc4ccccn34)cc2)c1 [Example 72]", "value_reported": "< 1 µg/mL"}
{"molecule": "CN1/C(=N/c2ccc(NC(=O)C(=O)c3c(-c4ccccc4)cc4ccccn34)cc2)OCC1(C)C [Example 8]", "value_reported": "> 10 µg/mL"}

Let us move to another entry and its MIC.
Asked: Endpoint output: MIC of Cc1cc(C)nc(N2CCN(c3ccc(NC(=O)C(=O)c4c(-c5ccccc5)cc5ccccn45)cc3)CC2)n1 [Example 44] . Value?
Given back: < 1 µg/mL

----------
Consider the following compounds and their measured MIC readings.
Tested on: Aspergillus fumigatus
Experiment: MIC measurement, YAG medium
Assay type: cell-based
Settings: Aspergillus fumigatus; YAG medium; MIC banded into grades; strain AF293; read-out: MIC A. fumigatus
Method: Between 1 and 5 mgs of compound were accurately weighed out into a sterile Eppendorf tube. The compound was dissolved in DMSO to give a solution containing […]. Tubes were stored at −20° C. until required. […] This produced MIC plates with a drug range 50-0.05 mg/L and organism inocula of 1-2×10^4 cfu/mL for Aspergillus spp. and other filamentous fungi and 1-2×10^3 cfu/mL for yeasts. […] Growth was assessed by monitoring the optical density at 485 nm for each well. […]

{"test_smiles": "Cc1cc(C)nc(N2CCN(c3ccc(NC(=O)C(=O)c4c(-c5ccccc5)cc5ccccn45)c(C)c3)CC2)c1", "value_reported": "< 1 µg/mL"}
{"test_smiles": "O=C(Nc1ccc(-c2cocn2)cc1)C(=O)c1c(-c2ccc(-c3ccccc3)cc2)cc2ccccn12", "value_reported": "> 10 µg/mL"}
{"test_smiles": "O=C(Nc1ccc(N2CCN(c3cccnc3)CC2)cc1)C(=O)c1c(-c2ccccc2)cc2ccccn12", "value_reported": "< 1 µg/mL"}

Asked: Endpoint output: MIC of Cc1c(-c2ccccc2)c2ccccn2c1C(=O)C(=O)Nc1ccc(N2CCOCC2)cc1 . Value?
Given back: > 10 µg/mL

Asked: // next record Cc1cccc(N2CCN(c3ccc(NC(=O)C(=O)c4c(-c5ccccc5)cc5ccccn45)cc3)CC2)n1
Given back: < 1 µg/mL

Asked: // next record COCc1cc(N2CCN(c3cc(C)cc(C)n3)CC2)ccc1NC(=O)C(=O)c1c(-c2ccccc2)cc2ccccn12
Given back: < 1 µg/mL

Asked: // next record CON=C1CCN(c2ccc(NC(=O)C(=O)c3c(-c4ccccc4)cc4ccccn34)cc2)CC1
Given back: < 1 µg/mL
